Hello, the source for this data is ChEMBL document CHEMBL5634175, in case you need it.

System: Bacillus subtilis
procedureDetails: Antibacterial activity against Bacillus subtilis incubated for 12 hrs by broth microdilution method
Type: functional
valueType: MIC

Consider the worked cases shown below.
smilesData | MIC
CC[C@@H](/C=C/[C@H](OC(=O)/C(C)=C\[C@@H]1C(=O)NC2=CC(=O)c3cc(O)c(C)cc3[C@]21O)[C@H](C)O)CCC(=O)O | > 50 µg/mL
CC[C@@H](/C=C/[C@H](O)[C@H](C)OC(=O)/C(C)=C\[C@@H]1C(=O)NC2=CC(=O)c3cc(O)c(C)cc3[C@]21O)CCC(=O)O | > 50 µg/mL
CC[C@@H](/C=C/[C@H](OC(=O)/C(C)=C\[C@H]1C(=O)NC2=CC(=O)c3cc(O)c(C)cc3[C@@]21O)[C@H](C)O)CCC(=O)O | > 50 µg/mL
CC[C@H]1/C=C/[C@H](O)[C@@H](C)OC(=O)/C(C)=C\CC(=O)Nc2cc(O)cc3c2O[C@@]2(CC1)CC(=O)[C@H](C)[C@H]3O2 | > 50 µg/mL
CC[C@H]1/C=C/[C@@H]([C@@H](C)O)OC(=O)/C(C)=C\CC(=O)Nc2cc(O)cc3c2O[C@@]2(CC1)CC(=O)[C@@H](C)[C@@H]3O2 | > 50 µg/mL

Fill in: MIC of `CC[C@@H](/C=C/[C@H](O)[C@H](C)OC(=O)/C(C)=C\C1=C2C(=CC(=O)c3cc(O)c(C)cc32)NC1=O)CCC(=O)O` is ___ > 50 µg/mL

MIC lookup needed for `CC[C@@H](/C=C/[C@H](OC(=O)/C(C)=C\C1=C2C(=CC(=O)c3cc(O)c(C)cc32)NC1=O)[C@H](C)O)CCC(=O)O` , thanks. > 50 µg/mL
